The values you see were collected from PubChem BioAssay (NCI).

# Tested on: DU-145 prostate
# protocol: NCI-60 one-dose screen, 48 h
# condition.parameters: 10 µM unless noted
About 83,000 compounds went through this panel and 20% of them were active in at least one assay; those are over-represented in the sample as a whole. Active and inactive are the calls of the source. The calls were made as follows: active = growth percent below 10; inactive = the rest.
Possible outcomes: label 1 for active, label 0 for inactive

compound: C#C[C@]1(O)CC[C@H]2[C@@H]3CC=C4c5nc(Nc6ncccn6)sc5CC[C@]4(C)[C@H]3CC[C@@]21C
answer.label: label 0

compound: Clc1ccccc1/C=N\Nc1ccccn1
answer.label: label 0

compound: COc1ccc(C(C(=O)O)c2ccc(OC)cc2)cc1
answer.label: label 0

compound: CCOC(=O)c1cc(C#N)n2ncc3ccccc3c12
answer.label: label 0

compound: COc1c(C(C)=O)c(OCCCCOc2c(C(C)=O)c(OC)c3ccoc3c2OC)c(OC)c2occc12
answer.label: label 0

compound: Cc1nc(-c2ccccc2)sc1CC#N
answer.label: label 0

compound: N#Cc1c(N2CCOCC2)nc(=S)[nH]c1-c1ccco1
answer.label: label 0

compound: Cn1cc(-c2noc(C(=O)c3cn(C)c4ncccc34)n2)c2ccccc21
answer.label: label 0

compound: Cc1ccc(NC(=O)N[C@@H](Cc2cc(F)cc(F)c2)C(=O)N[C@@H]2C(=O)N3CCC[C@H]3C(=O)N3CCOC[C@H]3C(=O)N[C@@H](C)C(=O)N3C[C@H](C)C[C@H]3C(=O)O[C@H]2C)cc1
answer.label: label 0

compound: O=c1[nH]c(CN2CCN(c3cccc(Cl)c3)CC2)nc2cc(Cl)ccc12
answer.label: label 0

compound: C[C@H]1[C@H](C)CC[C@]2(C(=O)O)CC[C@]3(C)C(=CC[C@@H]4[C@@]5(C)C/C(=C/c6cccnc6)[C@H](O)C(C)(C)[C@@H]5CC[C@]43C)[C@H]12
answer.label: label 1

compound: Cn1c(=O)c(C#N)c(-c2ccco2)n2c(S(=O)(=O)Cc3ccccc3)nnc12
answer.label: label 0

compound: Cc1cc(SC#N)ncn1
answer.label: label 0

compound: COc1ccc(NC(=O)Nc2ccc(-c3cccnc3)cc2N2CCC(CO)CC2)cc1
answer.label: label 0

compound: Cc1ccc(NC(=S)/N=c2/n(-c3ccccc3)nc3n2CCN3C2=NCCN2)cc1
answer.label: label 0

compound: CC(=O)O.CC(=O)O.O.[Fe]
answer.label: label 0

compound: Cc1ccc(-c2cn(C/C=C3\C=CN(S(=O)(=O)c4ccccc4)CC3)nn2)cc1
answer.label: label 0

compound: CCCCCN(CCCCC)CCCCCCCCN1CCCc2ccccc21
answer.label: label 0

compound: CCN(CC)c1ccc2cc(C(Nc3ccc(Br)c(C(F)(F)F)c3)c3nnnn3C(C)(C)C)c(=O)oc2c1 (centres undefined)
answer.label: label 0

compound: CNC(=O)c1cc(Oc2ccc3nc(NC(=O)c4ccc5ncccc5c4)sc3c2)ccn1
answer.label: label 0

compound: Cc1cnc(N)nc1OCCNC(=O)c1cccc(-c2ccc(S(=O)(=O)Nc3ccc4c(c3)N(C(=O)C3CC3)CCC4)cc2)c1
answer.label: label 0

compound: CC(C)c1ccc(/C=N/N=C(N)N)cc1
answer.label: label 0

compound: C=C(CC(=O)OC)C(C)=O
answer.label: label 0

compound: Cc1cccc(C[C@H](NC(=O)Nc2ccc(C)cc2F)C(=O)N[C@@H]2C(=O)N3C[C@H](O)C[C@H]3C(=O)N3CCN(C)C[C@H]3C(=O)N[C@@H](C)C(=O)N3C[C@H](C)C[C@H]3C(=O)O[C@H]2C)c1
answer.label: label 0

compound: Nc1nc(SCc2cccc([N+](=O)[O-])c2)c2[nH]cnc2n1
answer.label: label 0

compound: COc1ccc(C(=O)CSc2nccc(Nc3ccc(C(=O)O)cc3)n2)cc1
answer.label: label 0

compound: O=C(NCCO)c1cccnc1
answer.label: label 0

compound: N#Cc1ccc(-c2ccc(COc3ccc(CC4SC(=O)NC4=O)cc3)cc2)cc1 (centres undefined)
answer.label: label 0

compound: Cc1ccc(NCCN2CCCCC2)c2c(=O)c3ccccc3sc12
answer.label: label 0

compound: CCOC(=O)c1nn(C2CCCCO2)c2ccc(NC(=O)Cn3nnc4ccccc43)cc12 (centres undefined)
answer.label: label 0

compound: c1cc2ccc3cc2cc1CNCCN1CCNCc2ccc4ccc(cc4c2)CNCCN(CCNC3)CCNCc2ccc3ccc(cc3c2)CNCC1
answer.label: label 1

compound: CCN(CC)CCSC(=O)C(O)(c1ccccc1)C1CCCC1 (centres undefined)
answer.label: label 0

compound: C=C(C)C1CCC2(C(=O)O)CCC3(C)C(CCC4C5(C)CCC(OC(=O)NCc6ccccc6)C(C)(C)C5CCC43C)C12 (centres undefined)
answer.label: label 0

compound: Cn1cc(-c2nnc(-c3cn(C)c4ncc(Br)cc34)s2)c2cc(Br)ccc21
answer.label: label 0

compound: CS(=O)(=O)c1cccnn1
answer.label: label 0

compound: CCN(CC)c1ccc2cc(C(Nc3ccc(Cl)cc3)c3nnnn3C(C)(C)C)c(=O)oc2c1 (centres undefined)
answer.label: label 0

compound: Oc1ccc(N=Nc2nccs2)c(O)c1
answer.label: label 0

compound: C/C=C/C1OC23CCCCC2C(C#N)(C(=N)O3)C1(C#N)C#N (centres undefined)
answer.label: label 0

compound: COc1cc2c(cc1OCCCN1CCN(CCCOc3cc4c(cc3OC)C(=O)N3C[C@H](F)C[C@H]3C=N4)CC1)N=C[C@@H]1C[C@@H](F)CN1C2=O
answer.label: label 1

* * *

# System: UACC-62 melanoma
# protocol: NCI-60 one-dose screen, 48 h
# condition.parameters: 10 µM unless noted
This is part of a sample that, as a whole, favours compounds with a hit. Of some 83,000 tested, about 20% had one in any assay. Active and inactive are the calls of the source. The calls were made as follows: active = growth percent below 10; inactive = the rest.
Possible outcomes: active, inactive

mol: CC(C)C1=NOC(=O)C1=Cc1cn(-c2ccccc2)nc1-c1ccc(Cl)cc1
answer.label: inactive
//
mol: C=C(C)[C@@H]1CC[C@]2(C(=O)NCCNCCNC(=O)OC(C)(C)C)CC[C@]3(C)[C@H](CC[C@@H]4[C@@]5(C)CCC(=O)C(C)(C)[C@@H]5CC[C@]43C)[C@@H]12
answer.label: inactive
//
mol: Cn1cc(-c2nnc(-c3ccccc3)s2)c2cc(Br)cnc21
answer.label: inactive
//
mol: Cc1cc(N2CCCCCC2)nc(N2CCN(CC(=O)Nc3ccc4c(ccn4Cc4ccccc4)c3)CC2)n1
answer.label: inactive
//
mol: O=C(Nc1cc(-c2cccnc2)nc(NCCCN2CCOCC2)n1)c1cc(Br)cc(C(F)(F)F)c1
answer.label: active
//
mol: COc1cc(OC)cc(C(=O)Nc2cc(-c3cccnc3)nc(NCCCN3CCOCC3)n2)c1
answer.label: inactive
//
mol: CCN1c2ccccc2C(Cl)(c2ccc(N(C)C)cc2)c2ccccc21
answer.label: inactive
//
mol: O=C(Nc1ccc(Oc2ccc(F)cc2)c(Cl)c1)c1cccnn1
answer.label: inactive
//
mol: NC1=NC(=O)NC1(c1ccccc1)c1ccccc1
answer.label: inactive

* * *

# Tested on: SK-MEL-28 melanoma
# protocol: NCI-60 one-dose screen, 48 h
# condition.parameters: 10 µM unless noted
Compounds without any hit were thinned out: in the full panel of roughly 83,000, 20% have a hit. Activity calls are given as the source filed them. The calls were made as follows: active = growth percent below 10; inactive = the rest.
Possible outcomes: active, inactive

molecule: COc1ccc2nc3cc(Cl)ccc3c(Nc3ccc(O)cc3)c2c1
answer.label: inactive
--
molecule: O=S(=O)(NCCNc1nccc(-c2c(-c3cccc(F)c3)nc3occn23)n1)c1ccc(C(F)(F)F)cc1
answer.label: inactive
--
molecule: ClC1=C(Cl)C(Cl)=C(Cl)C1=Cc1ccccc1
answer.label: active
--
molecule: CCOC(=O)c1cc(C#N)n2ncc3ccccc3c12
answer.label: inactive
--
molecule: CC1(C)CC[C@]23CC[C@]4(C)[C@H](CC[C@@H]5[C@@]6(C)C/C(=C/c7cccnc7)C(=O)C(C)(C)[C@@H]6CC[C@]54C)[C@H]2[C@H]1OC3=O
answer.label: inactive
--
molecule: Cn1cc(-c2nnc(-c3cn(C)c4ncc(Br)cc34)o2)c2ccccc21
answer.label: inactive
--
molecule: O=C1CC(C(F)(F)F)Cc2nc3ccc(Br)cc3cc21 (centres undefined)
answer.label: inactive
--
molecule: CS(=O)(=O)c1cccnn1
answer.label: inactive
--
molecule: CCCOc1ccc(-c2nc(-c3ccc(N)cc3)cs2)cc1
answer.label: inactive
--
molecule: Cn1cc(-c2nnc(-c3ccccc3)s2)c2cc(Br)cnc21
answer.label: inactive
--
molecule: C=C1C(=O)O[C@H]2[C@H]1CC/C(COC(=O)NCc1ccc(Cn3c(=O)sn(-c4ccc(Cl)cc4)c3=O)cc1)=C\CC[C@@]1(C)O[C@@H]21
answer.label: inactive
--
molecule: COc1ccc(-c2cc(-c3ccc(Cl)cc3)nc(SCCCCCCC(=O)NO)n2)cc1
answer.label: inactive
--
molecule: O=C(C[n+]1ccn(CC(OCc2ccc(Cl)cc2Cl)c2ccc(Cl)cc2Cl)c1)c1ccc(F)cc1 (centres undefined)
answer.label: active
--
molecule: Fc1cc2[nH]ncc2c2c3c(c(-c4cn[nH]c4)nc12)CCCC3
answer.label: active
--
molecule: C=C(C)[C@@H]1CC[C@]2(C)[C@H](C(=O)C=C3[C@@H]4C[C@](C)(C(=O)N5CCN(C)CC5)CC[C@]4(C)CC[C@]32C)[C@@]1(C)CCC#N
answer.label: active
--
molecule: CCN1c2ccccc2C(Cl)(c2ccc(N(C)C)cc2)c2ccccc21
answer.label: inactive
--
molecule: COc1cccc(-c2[nH]c(=S)ncc2C(=O)c2ccccc2)c1
answer.label: inactive
--
molecule: COc1ccc(C(C(=O)O)c2ccc(OC)cc2)cc1
answer.label: inactive
--
molecule: O=C(NCCO)c1cccnc1
answer.label: inactive
--
molecule: O=c1cc(-c2ccccc2)oc2c(O)c(O)ccc12
answer.label: inactive
--
molecule: C=C(C)[C@@H]1CC[C@]2(C(=O)NCCCCCCN(CCCN)CCCN)CC[C@]3(C)[C@H](CC[C@@H]4[C@@]5(C)CC[C@H](OCCCN)C(C)(C)[C@@H]5CC[C@]43C)[C@@H]12
answer.label: inactive
--
molecule: O=C1CC(c2ccccc2)Cc2nc3ccc(Cl)cc3cc21 (centres undefined)
answer.label: inactive
--
molecule: O=S(=O)(/N=c1/n(-c2ccccc2)nc2n1CCN2C1=NCCN1)c1ccc(-c2ccccc2)cc1
answer.label: inactive
--
molecule: O=C1NC(=O)C(Cc2ccc(OCc3ccc(-c4cc(F)c(F)c(F)c4)cc3)cc2)S1 (centres undefined)
answer.label: inactive
--
molecule: Cc1cc(C)nc(SCC(=O)Nc2cccc(N=Cc3ccccc3O)c2)n1
answer.label: inactive
--
molecule: Cn1cc(-c2nnc(-c3cn(C)c4ncccc34)s2)c2ccccc21
answer.label: inactive
--
molecule: CC(C)C1=NOC(=O)C1=Cc1cn(-c2ccco2)nc1-c1ccccc1
answer.label: inactive
--
molecule: Nc1ccc(Cl)c([N+](=O)[O-])c1
answer.label: inactive
--
molecule: c1ccc(-c2nc(N3CCCNCC3)c3nc(-c4ccccc4)oc3n2)cc1
answer.label: inactive
--
molecule: CC[C@]12C=CCN3CC[C@@]4(c5ccc(OC)cc5N(C)[C@H]4[C@@](O)(C(=O)OC)[C@@H]1OC(=O)CCC(=O)N[C@H](Cc1c[nH]c4ccccc14)C(=O)OC)[C@@H]32
answer.label: active
--
molecule: COc1ccc2nc3c(cc2c1)C(=O)CC(c1ccccc1)C3 (centres undefined)
answer.label: inactive
--
molecule: CCc1cccc(Cl)c1
answer.label: inactive
--
molecule: COc1cc2c(=O)[nH]c3cc([N+](=O)[O-])ccc3c2cc1[N+](=O)[O-]
answer.label: inactive
--
molecule: CC(C)C1=NOC(=O)C1=Cc1cn(-c2ccccc2)nc1-c1ccc(Cl)cc1
answer.label: inactive
--
molecule: C#CCOc1ccc(C2=NN(CC3CC3)C3N=C(Cl)c4ncn(CC5CC5)c4N23)cc1OCC#C (centres undefined)
answer.label: inactive
--
molecule: CCOC(=O)/C(C#N)=C(\C)CCc1ccccc1
answer.label: inactive
--
molecule: CCCCOC(=O)c1c(C)[nH]c(/C=C2\N=C(c3ccc[nH]3)C=C2OC)c1C
answer.label: active
--
molecule: O=[N+]([O-])c1ccc(O)c(-c2nc3ccccc3s2)c1
answer.label: inactive
--
molecule: C[C@H]1[C@H](C)CC[C@]2(C(=O)O)CC[C@]3(C)C(=CC[C@@H]4[C@@]5(C)C/C(=C/c6cccnc6)[C@H](O)C(C)(C)[C@@H]5CC[C@]43C)[C@H]12
answer.label: active
